# Procedure text: Inhibition of cupric ion-mediated amyloid beta (1 to 42) aggregation at 25 uM measured after 24 hrs by ThT fluorescence assay relative to control
Criterion: inhibition meeting or surpassing 80%. Met: satisfied. Not met: not satisfied.

Field: example entries. Status: answers known.
CCN(CCCCCCOc1cc(O)c2c(=O)c3ccccc3sc2c1)Cc1ccccc1	not satisfied
CCN(CCCCCCOc1cc(O)c2c(=O)c3ccccc3sc2c1)Cc1ccccc1N(C)C	satisfied
CCN(CCCOc1cc(O)c2c(=O)c3ccccc3sc2c1)Cc1ccccc1N(C)C	not satisfied
COc1cc(/C=C/C(=O)CC(=O)/C=C/c2ccc(O)c(OC)c2)ccc1O	not satisfied
COc1ccccc1CN(C)CCCCCCOc1cc(O)c2c(=O)c3ccccc3sc2c1	satisfied

Consider now this further molecule.
Please tell me: is the molecule `CCN(CCCOc1cc(O)c2c(=O)c3ccccc3sc2c1)Cc1ccc(N(C)C)cc1` at or over 80% in terms of inhibition?
satisfied
